Data credit: patent US20170088602A1

Target: T1, human BMP-11 (GDF-11; R&D Systems) (human, UniProt O95390 299-407)
T1 sequence (looked up): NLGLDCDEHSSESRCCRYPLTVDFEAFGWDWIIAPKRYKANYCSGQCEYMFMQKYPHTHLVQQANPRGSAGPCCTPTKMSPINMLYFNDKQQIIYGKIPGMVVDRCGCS
Assay: cell-based or functional assay
metric: ARE-luciferase IC50 (nM)
Give the value, in units of nM, as a plain number.

Measured ARE-luciferase IC50 of ATI-1378 [40K 2-branch PEG] (designed binder, 40K 2-branch PEG on the Cys of the EGSGC tail, cysteine mutant of 3146_A08) MGVSDVPRDLEVVAATPTSLLISWSLPNPGNAHYYRITYGETGGNSPVQEFTVPGRGVTATISGLKPGVDYTITVYAVTVTDTGFITYKPISINYRTEGSGCHHHHHH : 5.4

Measured ARE-luciferase IC50 of ATI-1377 [40K 2-branch PEG] (designed binder, 40K 2-branch PEG on the Cys of the EGSGC tail) MGVSDVPRDLEVVAATPTSLLISWDAPKGLARYYRITYGETGGNSPVQEFTVVGRGNTATISGLKPGVDYTITVYAVTIFRDGPVTWDPISINYRTEGSGCHHHHHH : 0.78

Measured ARE-luciferase IC50 of ATI-1359 [40K 2-branch PEG] (designed binder, 40K 2-branch PEG on the Cys of the EGSGC tail) MGVSDVPRDLEVVAATPTSLLISWTLPHAGRAHYYRITYGETGGNSPVQEFTVPGRGVTATISGLKPGVDYTITVYAVTVTTTKVIHYKPISINYRTEGSGC : 3.1

Measured ARE-luciferase IC50 of ATI-1338 [40K 2-branch PEG] (designed binder, 40K 2-branch PEG on the Cys of the EGSGC tail, cysteine mutant of 2987_H07) MGVSDVPRDLEVVAATPTSLLISWTLPHAGRAHYYRITYGETGGNSPVQEFTVPGRGVTATISGLKPGVDYTITVYAVTVTTTKVIHYKPISINYRTEGSGCHHHHHH : 5.8

Measured ARE-luciferase IC50 of ATI-1375 [40K 2-branch PEG] (designed binder, 40K 2-branch PEG on the Cys of the EGSGC tail, cysteine mutant of 3115_D04) MGVSDVPRDLEVVAATPTSLLISWDAPRGLARYYRITYGETGGNSPVQEFTVFGRGTTATISGLKPGVDYTITVYAVTIDRDGTRSFDPISINYRTEGSGCHHHHHH : 1.6
